# tested.system: T1, C terminal domain of polyadenylate-binding protein 1 (human, UniProt P11940 544-623)
# T1 chain: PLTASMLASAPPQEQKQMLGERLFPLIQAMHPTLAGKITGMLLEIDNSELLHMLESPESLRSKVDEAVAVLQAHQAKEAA
# method: FP
Reported Kd by item:

>  <binder>
TTGLNPTAVPFTLRNL [P/V/C_(183-198) (NiV) peptide]

>  <Kd, nM>
15000

$$$$
>  <binder>
NSMLNPNAVPFQPSPQ [N_(2-17) (BeV) peptide]

>  <Kd, nM>
2700

$$$$
>  <binder>
HPLLNPSALEFNPSQT [N_(351-366) (HCoV 229E) peptide]

>  <Kd, nM>
23000

$$$$
>  <binder>
SAGLNPAAVPFVPKNQ [P/V/C_(183-198) (HeV) peptide]

>  <Kd, nM>
2000

$$$$
>  <binder>
MSKLSVNAPEFYPSGY [PABP-interacting protein 1 peptide PAIP1_(125-140)]

>  <Kd, nM>
1600

$$$$
>  <binder>
KSNLNPNAKEFVPGVK [PABP-interacting protein 2 peptide PAIP2_(108-123)]

>  <Kd, nM>
160

$$$$
